assay summary: yeast display, Sf9 membrane polyspecificity reagent, FACS + sequencing; frameworks hold sequencing errors
value kind: polyreactivity (PSR sort gate)

QVQHVESGGGLVQAGGSLRLSCAASGRTFYNYAKGWYRQAPGKERELVAGITSCGGSTYYADSVKGRFTISRDNAKNTVYLQMNSLKPEDTAVYYCARVWPSQKHYYWGQGTQVTVSS: high polyreactivity
QVELVESGGGLVQAGGSLRLSCAASGLTCVSYAMGWYRQAPGKERELVAAISRSGGSTYYADSVKGRFTISRDNAKNTVYLQMNSLKPVDTAVYYGNAYSYVDFCAVYRYDYWGQGTQLTVSS: high polyreactivity

====

assay summary: yeast display, Sf9 membrane polyspecificity reagent, FACS + sequencing; frameworks hold sequencing errors
value kind: polyreactivity (PSR sort gate)

Some sequences with recorded polyreactivity (PSR sort gate):
QVQLVESGGGLVQAGGSLRLSCAASGSIFPYNAMGWYRQAPGKERELVAAISKRGGSTYYADSVKGRFTISRDNAKNTVYFQMNSLKPEDTAVYYCAARYPPYRSWYSYDYWGQGTQVTVSS: low polyreactivity
QVQLVESGGGLVHAGGSLRLSCAASGINFFPYAMGWYRQAPGKERELVASINISDSSTYYADSVKGRFTISRDNAKNTVYLQMNSLKPEDTAVYYCAADNRGDSWYWHGYWGQGTQVSVSS: low polyreactivity
QVQLVESRGGLVQAGGSLRLSFAASGFTFGSYSMVWYRQAPGKERELVADITRRGDNTYYADSVKGRFTISRDNAKNTVYLQMNSLKPEDSAVYYCNAAKGGRYPDYDYWGQGTQVTVSS: high polyreactivity
QVQLVESGGGLLQAGGSLRLSCAASGSIFLYYAMGWYRQAPGKERELVAGISRGGGTTYYADSVKGRFTISRDNAKNTVYLQMNSLKPEDTAFYYCATVFWRSKHEYWGQGTQVTVSW: high polyreactivity
QVQLVESGGGLVQAGGSLRLSCAASGSTFWGYTMGWYRQAPGKERELVAAITGSGGSTNYADSVKGRFTISRDNANNTVYLQMNSLKPEDTAVYYCATQGITPSNSYDYWGQGTQVTVSS: low polyreactivity

Field request: polyreactivity (PSR sort gate) | item: QVQLVESGGGLVQAGGSLRLSCAASGSIFSGYTMGWYRQAPGKERELVAAISSDGSTTYADSVKGRFTISRDNAKNTVYLQMNSLNPEDTADYYCAAYPYWEGSYGGYDYWGQGTEVTVSS
low polyreactivity

Same question for QVQLEESGGGLVQAGGILRFSCAASGYTFRGYAMGWYRQAPGKEREFVAAIRNSGDSSYYADSVKGRFTISRDNAKNTVYLQRHSLKPEDTAVYYSAAYSRSSKYDYWGQGSQVTVSS please.
low polyreactivity

Reference source for all entries: the nanobody polyreactivity screen of Harvey et al. (2022)
